TEST TARGET: Cytochrome P450 2C9 (Homo sapiens, UniProt P11712)
Sequence (P11712 whole entry): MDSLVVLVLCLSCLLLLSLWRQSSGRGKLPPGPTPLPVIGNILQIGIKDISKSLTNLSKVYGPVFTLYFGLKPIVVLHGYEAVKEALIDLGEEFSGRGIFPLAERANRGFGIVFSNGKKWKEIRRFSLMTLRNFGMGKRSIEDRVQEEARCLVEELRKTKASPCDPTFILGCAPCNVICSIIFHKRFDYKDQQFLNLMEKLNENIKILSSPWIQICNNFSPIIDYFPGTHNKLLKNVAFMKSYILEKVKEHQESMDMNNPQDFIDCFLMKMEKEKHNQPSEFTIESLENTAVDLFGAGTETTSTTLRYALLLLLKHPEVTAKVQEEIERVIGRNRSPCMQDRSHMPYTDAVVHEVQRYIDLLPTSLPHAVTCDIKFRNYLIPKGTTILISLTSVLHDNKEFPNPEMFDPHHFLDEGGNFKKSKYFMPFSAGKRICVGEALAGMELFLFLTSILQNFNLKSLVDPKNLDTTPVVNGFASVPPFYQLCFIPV
REPORTED ENDPOINT: AC50

Query (molecule): `CN(C)c1ccc(-c2nc(Nc3ccncc3)c3ccccc3n2)cc1` ; field requested: AC50
0.794 µM (inconclusive)

Query (molecule): `CCN1CCN(Cc2ccc(NC(=O)Nc3cccs3)cc2)CC1` ; field requested: AC50
7.94 µM (inconclusive)

Query (molecule): `COc1ccc(CNc2nc(-c3ccc4c(c3)OCO4)nc3ccccc23)c(OC)c1` ; field requested: AC50
0.501 µM (inconclusive)

Query (molecule): CCOC(=O)C(NC(=O)CC)(Nc1sc2c(c1C(=O)OC)CCN(C)C2)C(F)(F)F (stereo not drawn) ; field requested: AC50
15.8 µM (inconclusive)

Query (molecule): `C/C(CCC(=O)OC[C@@H]1O[C@H](C#Cc2ccccc2)C=C[C@@H]1Oc1ccc(C)cc1)=N/OC[C@@H](O)COCc1ccco1` ; field requested: AC50
1.58 µM (inconclusive)

Query (molecule): `O=C(CSc1nc2ccccc2c(=O)n1NC(=O)c1ccccc1)c1ccc(Cl)cc1` ; field requested: AC50
1 µM (inconclusive)

Query (molecule): CCC[C@@H]1C[C@@]1(CCC)C(NC(=O)c1ccccc1)c1cccc(Cl)c1 (stereo partly drawn) ; field requested: AC50
20 µM (inconclusive)

Query (molecule): Cc1cccc(Nc2ccccc2C(=O)OCC(=O)N(C)C2CCS(=O)(=O)C2)c1C (stereo not drawn) ; field requested: AC50
39.8 µM (inconclusive)

Query (molecule): `O=C(Cc1ccc2c(c1)CCCC2)Nc1ccccc1Br` ; field requested: AC50
15.8 µM (inconclusive)

Query (molecule): CCOC(=O)C1=C(C)NC(=S)NC1c1cccc(O)c1 (stereo not drawn) [MONASTROL] ; field requested: AC50
20 µM (inconclusive)

Query (molecule): `O=C1CCC(c2ccccc2)=NN1c1nc2ccccc2s1` ; field requested: AC50
3.98 µM (inconclusive)

Query (molecule): `O=C(CSc1nc(-c2ccccc2)nc2ccccc12)Nc1nccs1` ; field requested: AC50
0.631 µM (inconclusive)

Query (molecule): `Cc1cc2nnc(SCC(=O)N3CCN(c4ccccc4)CC3)n2c(N)n1` ; field requested: AC50
25.1 µM (inconclusive)
